Reference for the values: patent US20230143604A1

- testTarget: human plasma proteins
- experimentDescription: plasma protein binding, ultracentrifugation, LC-MS/MS
Starred links: 1 amine or outer side, 2 acyl side, 3 side chain; linkers in the order of their positions; H or OH if unused. Non-standard residues stand in square brackets, D forms with d. Groups on a side chain read outwards from the residue. No end group written: not given here. *: point of attachment. C18 diacid = O=C(O)CCCCCCCCCCCCCCCCC(=O)*; C17 diacid = O=C(O)CCCCCCCCCCCCCCCC(=O)*; γGlu = O=C(O)[C@H](CCC(=O)[*:2])N[*:1]; NMeY = CN[C@@H](Cc1ccc(O)cc1)C(=O)O; AEEA = NCCOCCOCC(=O)O; Aib = CC(C)(N)C(=O)O
measuredAttribute: Human PPB (FUplasma), fraction unbound in plasma (fraction unbound)
Would you mind answering with just the numeric figure?

1. [NMeY][Aib]EGTFISDYSIALDR[Aib]AQ[Aib]K([2OEGgEgE-C17 diacid])FVNWLLAQR-NH2 [Compound No. 8] ... 0.0009

Summary for this binder, [NMeY][Aib]EGTFISDYSIALDR[Aib]HQ[Aib]NFVNWLLAK([AEEA-AEEA-γGlu-γGlu-C18 diacid])R-NH2 [Compound No. 19] : Human PPB (FUplasma), fraction unbound in plasma (fraction unbound) is 0.0011

Summary for this binder, [NMeY][Aib]EGTFISDYSIALDR[Aib]K([AEEA-AEEA-γGlu-γGlu-C17 diacid])Q[Aib]NFVNWLLAQSPSSGAPPPS-NH2 [Compound No. 11] : Human PPB (FUplasma), fraction unbound in plasma (fraction unbound) is 0.0038

Summary for this binder, [NMeY][Aib]EGTFISDYSI[Aib]LDRK([AEEA-AEEA-γGlu-γGlu-C17 diacid])AQ[Aib]NFVNWLLAQRPSSGAPPPS-NH2 [Compound No. 15] : Human PPB (FUplasma), fraction unbound in plasma (fraction unbound) is 0.0017

Summary for this binder, [NMeY][Aib]EGTFISDYSIALDR[Aib]AQ[Aib]K(2OEGgEgE‑C20 diacid)FVNWLLAQKG-OH [Compound No. 39] : Human PPB (FUplasma), fraction unbound in plasma (fraction unbound) is 0.0112
